# Assay text: The activity in the LAF assay is best expressed as a ratio of the rapamycin IC50 (1-9 nM) /analogue IC50 (R/A)
# Type: functional
Measure: Ratio

Ask: Ratio lookup needed for CO[C@H]1C[C@@H]2CC[C@@H](C)[C@@](O)(O2)C(=O)C(=O)N2CCCC[C@H]2C(=O)O[C@H]([C@H](C)C[C@H]2CC[C@H](O)[C@@H](OC)C2)C[C@@H](OC(C)=O)[C@H](C)/C=C(\C)[C@@H](O)[C@@H](OC)C(=O)[C@H](C)C[C@H](C)/C=C/C=C/C=C/1C , thanks.
Result: 0.08

---

As shown below, each of these compounds has a reported IC50 value.
# Assay text: Ability to bind to FK506 binding protein via its inhibition of peptidyl prolyl cis-trans isomerase activity (PPIase) inherent to FKBP
The figure you give is taken to be in µM; do not add the unit.

Ask: IC50 lookup needed for CO[C@H]1C[C@@H]2CC[C@@H](C)[C@@](O)(O2)C(=O)C(=O)N2CCCCC2(C)C(=O)O[C@H]([C@H](C)C[C@H]2CC[C@H](O)[C@@H](OC)C2)CC(O)[C@H](C)/C=C(\C)[C@@H](O)[C@@H](OC)C(=O)[C@H](C)C[C@H](C)/C=C/C=C/C=C/1C (stereo partly specified) , thanks.
Result: 0.15

Ask: Would you kindly repeat that for CO[C@H]1C[C@@H]2CC[C@@H](C)[C@@](O)(O2)C(=O)C(=O)N2CCCCC2(C)C(=O)O[C@H]([C@H](C)C[C@H]2CC[C@H](O)[C@@H](OC)C2)CC(=O)[C@H](C)/C=C(\C)[C@@H](O)[C@@H](OC)C(=O)[C@H](C)C[C@H](C)/C=C/C=C/C=C/1C (stereo partly specified) ?
Result: 0.095

Ask: Would you kindly repeat that for CCC12CCCCN1C(=O)C(=O)[C@]1(O)O[C@@H](CC[C@H]1C)C[C@H](OC)/C(C)=C/C=C/C=C/[C@@H](C)C[C@@H](C)C(=O)[C@H](OC)[C@H](O)/C(C)=C/[C@@H](C)C(=O)C[C@@H]([C@H](C)C[C@H]1CC[C@H](O)[C@H](OC)C1)OC2=O (stereo partly specified) ?
Result: 0.95

Ask: Would you kindly repeat that for CO[C@H]1C[C@@H]2CC[C@@H](C)[C@@](O)(O2)C(=O)C(=O)N2CCCC[C@H]2C(=O)O[C@H](C[C@H](O)[C@H](C)C[C@@H]2CC[C@@H](O)[C@H](OC)C2)[C@H](C)/C=C(\C)[C@@H](O)[C@@H](OC)C(=O)[C@H](C)C[C@H](C)/C=C/C=C/C=C/1C ?
Result: 0.31

Ask: Would you kindly repeat that for CO[C@H]1C[C@@H]2CC[C@@H](C)[C@@](O)(O2)C(=O)C(=O)N2CCCC[C@H]2C(=O)O[C@H]([C@H](C)C[C@@H]2CC[C@@H](O)[C@H](OC)C2)CC(=O)[C@H](C)/C=C(\C)[C@@H](O)[C@@H](OC)C(=O)[C@H](C)C[C@H](C)/C=C/C=C/C=C/1C ?
Result: 0.015

More entries:
Ask: IC50 lookup needed for CO[C@H]1C[C@@H]2CC[C@@H](C)[C@@](O)(O2)C(=O)C(=O)N2CCCC[C@H]2C(=O)O[C@H]([C@H](C)C[C@H]2CC[C@H](O)[C@@H](OC)C2)CC(O)[C@H](C)/C=C(\C)[C@@H](O)[C@@H](OC)C(=O)[C@H](C)C[C@H](C)/C=C/C=C/C=C/1C (stereo partly specified) , thanks.
Result: 0.022
